test system: OVCAR-8 ovarian; test: NCI tumour cell line growth inhibition, 48 h
measured-endpoint: TGI (µM)
Quick note: give the figure in µM, leave out the unit.

compound | TGI / µM
O=C1CC(=O)OC(c2ccc([N+](=O)[O-])cc2)O1 | 7.83

input: So what's the measured TGI for this one? O=C1C(Br)=C(c2ccccc2)S(=O)c2ccccc21 (stereo not given)
output: 31.3

input: Please do the same for S=C(S)NCC1CCC(CNC(=S)S)CC1 (stereo not given) as well.
output: 47.9

input: Please do the same for Cc1c(Cl)cccc1NC(=O)CC1C(=O)Nc2ccccc2S1(=O)=O (stereo not given) as well.
output: 34.5

###

Entries and their TGI
system: PC-3 prostate; test: NCI tumour cell line growth inhibition, 48 h

compound | study-target | result
CC(C)(C)OC[C@H](O)CC#N | PC-3 prostate | > 100 µM
CNC(=S)N/N=C/c1ccc([N+](=O)[O-])s1 | PC-3 prostate | > 10 µM
Cc1ccc(SC(=O)N2C(=S)NC(=NC3CCCCC3)C23CCCCC3)cc1 | PC-3 prostate | > 100 µM
CC(=O)Nc1ccc(S(=O)(=O)NNC(=O)c2cccnc2Nc2ccc(Cl)cc2)cc1 | PC-3 prostate | > 100 µM
C=C(C)C1CC=C(C)C2(C1)OCC(C)(C)C(C)O2 (stereo unspecified) | PC-3 prostate | > 100 µM

// next item, TGI requested
input: So what's the measured TGI for this one? C[n+]1c2ccccc2c(C(=O)Nc2ccc(S(=O)(=O)N=C(N)N)cc2)c2ccccc21
output: > 100 µM

###

Entries and their GI50
tested on: HL-60(TB) leukemia; assay: NCI tumour cell line growth inhibition, 48 h

molecule | GI50
CC(=O)Nc1ccc(S(=O)(=O)NNC(=O)c2cccnc2Nc2ccc(Cl)cc2)cc1 | 9.67 µM
C[C@]12CC[C@@H]3c4ccc(O)cc4C(O)C[C@H]3[C@@H]1CCC2=O (stereo partly specified) | > 100 µM

input: What reported GI50 corresponds to O=[N+]([O-])c1ccc2c(c1)[O][Sn][O]2 on HL-60(TB) leukemia?
output: 36.5 µg/mL

input: Please do the same for COc1ccc(C(=O)N2c3ccccc3Sc3ccccc32)c(C(F)(F)F)c1 as well.
output: 0.252 µM

input: Please do the same for C/C(=N\NC(N)=S)c1nc2ccc(Cl)cc2[nH]1 as well.
output: 1.55 µM

input: Please do the same for Cc1cc(-c2nnc3n2CCCCC3)c(C)n1-c1ccc(Cl)c(Cl)c1 as well.
output: 20.6 µM

###

Entries and their TGI
test system: MDA-MB-435; assay: NCI tumour cell line growth inhibition, 48 h
Quick note: give the figure in µM, leave out the unit.

Worked cases, TGI given:
molecule | study-target | measured-endpoint | numeric-value
Nc1ccc2[nH]c(C(=O)N3CC(CCl)c4c3cc(N)c3ccccc43)cc2c1 (stereo not given) | MDA-MB-435 | TGI | 0.025
Cc1c2c(OCCCCN3CCN(c4ncccn4)CC3)nn(C)c(=O)c2c(C)n1-c1ccccc1 | MDA-MB-435 | TGI | 40.5
NC(=O)c1ccc(C2C3=C(CCCC3=O)OC3=C2C(=O)c2ccccc2C3=O)cc1 (stereo not given) | MDA-MB-435 | TGI | 0.339
COc1cc2nc(-c3ccc(C(F)(F)F)cc3)cc(OCCCN3CCCCC3)c2cc1OC | MDA-MB-435 | TGI | 7.08
COc1cccc(-c2cc(=O)c3ccc(C)nc3[nH]2)c1 | MDA-MB-435 | TGI | 0.0335

// next item, TGI requested
input: So what's the measured TGI for this one? CSc1ccc(/C=C2\C=C(CC(=O)NCc3ccc(C(=O)c4ccccc4)cc3)c3cc(F)ccc32)cc1
output: 0.0515
